Below, each of the compounds is paired with its reported Residual rate value.
TEST_SUMMARY: Evaluation of conversion rate to active form in buffer solution (Experimental Example 1)
Assay type: physicochemical
ASSAY_SETUP: pH6.0, 2 hr, 37° C., 25 umol/L in buffer solution
Numeric answer only, unit % assumed.

Some solved entries appear below for comparison.
CN1CC[C@H](c2c(OC(=O)N(C)C[C@H]3CCCCN3)cc(O)c3c(=O)cc(-c4ccccc4Cl)oc23)[C@H](O)C1 : 72.4
CCCN(CC1CCCCN1)C(=O)Oc1cc(O)c2c(=O)cc(-c3ccccc3Cl)oc2c1[C@H]1CCN(C)C[C@H]1O (stereo partly shown) : 83.0
CCN(C[C@@H]1CCCCN1)C(=O)Oc1cc(O)c2c(=O)cc(-c3ccccc3Cl)oc2c1[C@H]1CCN(C)C[C@H]1O [Example 1, ditrifluoroacetate] : 86.8

// switching to the query compound
Ask: Form field: reported Residual rate of CCCN(C[C@@H]1CCCCN1)C(=O)Oc1cc(O)c2c(=O)cc(-c3ccccc3Cl)oc2c1[C@H]1CCN(C)C[C@H]1O
Reply: 85.7

---

TEST_SUMMARY: Evaluation of conversion rate to active form in buffer solution (Experimental Example 1)
Format: physicochemical
ASSAY_SETUP: pH7.0, 3 hr, 37° C., 25 umol/L in buffer solution
Where a name gives a salt, the structure may show the parent alone.
Below, each of the compounds is paired with its reported Production rate of Alvocidib value.
Field: value (include unit after the number)

Some solved entries appear below for comparison.
CN1CC[C@H](c2c(OC(=O)N(C)C[C@@H]3CCCCN3)cc(O)c3c(=O)cc(-c4ccccc4Cl)oc23)[C@H](O)C1 : 74.5%
CN1CC[C@H](c2c(OC(=O)N(CCCC(F)(F)F)CC3CCCCN3)cc(O)c3c(=O)cc(-c4ccccc4Cl)oc23)[C@H](O)C1 (stereo partly drawn) : 75.2%
CCN(CC1CCCCN1)C(=O)Oc1cc(O)c2c(=O)cc(-c3ccccc3Cl)oc2c1[C@H]1CCN(C)C[C@H]1O (stereo partly drawn) [Example 7, dihydrochloride] : 70.5%
CC(C)N(CC1CCCCN1)C(=O)Oc1cc(O)c2c(=O)cc(-c3ccccc3Cl)oc2c1[C@H]1CCN(C)C[C@H]1O (stereo partly drawn) : 76.4%
CN1CC[C@H](c2c(OC(=O)N(CCF)CC3CCCCN3)cc(O)c3c(=O)cc(-c4ccccc4Cl)oc23)[C@H](O)C1 (stereo partly drawn) : 71.6%

Ask: Form field: reported Production rate of Alvocidib of CN1CC[C@H](c2c(OC(=O)N(C)C[C@H]3CCCCN3)cc(O)c3c(=O)cc(-c4ccccc4Cl)oc23)[C@H](O)C1
Reply: 43.3%

---

Below, each of the compounds is paired with its reported Residual rate value.
TEST_SUMMARY: Evaluation of conversion rate to active form in buffer solution (Experimental Example 1)
Format: physicochemical
ASSAY_SETUP: pH5.0, 3 hr, 37° C., 25 umol/L in buffer solution
Procedure: For Examples 1 to 16 and Comparative Examples 1 to 14, the attrition rate of the test compound and the conversion rate of the test compound to Alvocidib in a buffer solution were calculated by the following method. Examples 1 to 16 and Comparative Examples 1 to 14 were each left in buffer solutions adjusted to pH 5.0, 5.5, 6.0, 6.5, 7.0 and 7.4, respectively, at a concentration of 25 umol/L at 37° C. […]
Numeric answer only, unit % assumed.

Some solved entries appear below for comparison.
CC(C)N(CC1CCCCN1)C(=O)Oc1cc(O)c2c(=O)cc(-c3ccccc3Cl)oc2c1[C@H]1CCN(C)C[C@H]1O (stereo partly shown) : 89.5
CCCN(CC1CCCCN1)C(=O)Oc1cc(O)c2c(=O)cc(-c3ccccc3Cl)oc2c1[C@H]1CCN(C)C[C@H]1O (stereo partly shown) : 94.0
CCCN(C[C@H]1CCCCN1)C(=O)Oc1cc(O)c2c(=O)cc(-c3ccccc3Cl)oc2c1[C@H]1CCN(C)C[C@H]1O : 96.8

// switching to the query compound
Ask: Form field: reported Residual rate of CCN(C[C@@H]1CCCCN1)C(=O)Oc1cc(O)c2c(=O)cc(-c3ccccc3Cl)oc2c1[C@H]1CCN(C)C[C@H]1O [Example 1, ditrifluoroacetate]
Reply: 96.9
